Source listed as BindingDB's records for doi:10.1007/s10822-022-00478-x.

# target: cAMP and cAMP-inhibited cGMP 3',5'-cyclic phosphodiesterase 10A (Homo sapiens, UniProt Q9Y233)
pIC50: −log10 of the molar value.
measuredParameter: pIC50

1) O=C(Nc1cccc(N2CCCC2=O)c1)c1nc(C2CC2)ccc1Nc1cncnc1 [Roche-Dataset for PDE10A, Compound 831] : 7.62
2) CN(C)C(=O)c1cnn(Cc2ccccc2)c1C(=O)Nc1ccn2nc(N3CCOCC3)nc2c1 [Roche-Dataset for PDE10A, Compound 1136] : 6.06
3) CCN(C)C(=O)c1cnn(C)c1C(=O)Nc1ccn2cc(-c3cccc(O)c3)nc2n1 [Roche-Dataset for PDE10A, Compound 73] : 8.46
4) O=C(Nc1ccnc(C(=O)N2CCCCC2)c1)c1nc(C2CC2)cnc1Nc1cncnc1 [Roche-Dataset for PDE10A, Compound 730] : 7.17
5) CCc1ccc(NC(=O)c2nc(C3CC3)cnc2Nc2cncnc2)c(C(=O)NCC(C)(C)O)n1 : 9.39
6) O=C(NCc1cncs1)c1nc(C2CC2)cnc1Nc1cncnc1 [Roche-Dataset for PDE10A, Compound 1028] : 6.05
7) O=C(Nc1cccc(F)c1C(=O)N1CCC1)c1nc(C2CC2)cnc1Nc1cncnc1 : 8.78
8) O=C(Nc1cnc(Cl)cn1)c1nc(C2CC2)ccc1Nc1cncnc1 [Roche-Dataset for PDE10A, Compound 1090] : 6.84
9) COCCn1nc(-c2ccccn2)cc1NC(=O)c1nc(C2CC2)ccc1Nc1cncnc1 : 9.74
10) CN(c1nc2cc(NC(=O)c3c(C(=O)N4CCC4)cnn3C)ccn2n1)C1CC1 [Roche-Dataset for PDE10A, Compound 450] : 9.06
11) CCN(C)c1cnc(Nc2cncnc2)c(C(=O)Nc2cnn(C)c2C(=O)NC)n1 : 7.72
12) CNC(=O)c1cc(F)c(F)cc1NC(=O)c1nc(C2CC2)cnc1Nc1cncnc1 : 9.13
13) CCOc1cccc(NC(=O)c2nc(C3CC3)cnc2Nc2cncnc2)c1 [Roche-Dataset for PDE10A, Compound 602] : 7.59
14) CCOC(=O)c1cnn(C)c1C(=O)Nc1ccn2nc(N(C)C)nc2c1 [Roche-Dataset for PDE10A, Compound 549] : 6.50
15) COc1ccc(NC(=O)c2nc(C3CC3)cnc2Nc2cncnc2)nn1 [Roche-Dataset for PDE10A, Compound 1054] : 5.83
16) Cn1cc(-c2ccccc2)nc1COc1nc(N2CCOCC2)c2ccccc2n1 [Roche-Dataset for PDE10A, Compound 240] : 7.96
17) CS(=O)(=O)CCNC(=O)c1nc(C2CC2)cnc1Nc1cncnc1 [Roche-Dataset for PDE10A, Compound 1061] : 5.79
18) CC(=O)N1CC(C)(C)c2ccc(NC(=O)c3nc(C4CC4)cnc3Nc3cncnc3)cc21 [Roche-Dataset for PDE10A, Compound 952] : 8.12
19) CCN(C)C(=O)c1cnn(C)c1C(=O)Nc1ccn2cc(-c3cccc(OCC(=O)OC)c3)nc2n1 [Roche-Dataset for PDE10A, Compound 20] : 8.10
20) O=C(NCC1CC1)c1cccc(NC(=O)c2nc(C3CC3)cnc2Nc2cncnc2)n1 [Roche-Dataset for PDE10A, Compound 880] : 8.02
21) Cn1ncc(C(=O)N2CCC2)c1C(=O)N[C@@H]1CCn2cc(-c3cccc(Cl)c3)nc2C1 [Roche-Dataset for PDE10A, Compound 161] : 8.18
22) CC(C)n1nc(-c2ccccn2)cc1NC(=O)c1nc(C2CC2)ccc1Nc1cncnc1 : 8.59
23) CNC(=O)c1c(NC(=O)c2nc(C3CC3)ccc2Nc2cncnc2)cnn1CCOC : 9.08
24) COCCn1ccc(NC(=O)c2c(C(=O)N3CCC3)cnn2C)n1 [Roche-Dataset for PDE10A, Compound 1067] : 6.49
25) COc1ncc(C2CC2)nc1C(=O)Nc1cc(-c2ccccn2)nn1C [Roche-Dataset for PDE10A, Compound 776] : 5.78
26) CNC(=O)Cc1ccccc1NC(=O)c1nc(C2CC2)ccc1Nc1cncnc1 [Roche-Dataset for PDE10A, Compound 809] : 7.28
27) Cn1ncc(C(=O)N2CCC2)c1C(=O)Nc1ccn2nc(-c3cccnc3)nc2c1 [Roche-Dataset for PDE10A, Compound 281] : 8.94
28) Cn1ncc(C(=O)N2CCC2)c1C(=O)Nc1ccc2nc(N3CCCC3)nn2c1 [Roche-Dataset for PDE10A, Compound 469] : 9.32

* * *

# target: cAMP and cAMP-inhibited cGMP 3',5'-cyclic phosphodiesterase 10A (Homo sapiens, UniProt Q9Y233)
measuredParameter: IC50 (µM)

1) Cc1ncc(C)n2nc(/C=C/c3nc(N4CCNCC4)nn3C)nc12 [Roche-Dataset for PDE10A, Compound 311] : 1.55
2) O=C(c1nc(C2CC2)cnc1Nc1cncnc1)N1CCC(Cc2ccccc2)CC1 [Roche-Dataset for PDE10A, Compound 937] : 10
3) Cn1nc(NC(=O)c2c(C(=O)N3CCC3)cnn2C)cc1C(=O)N1CCCCC1 [Roche-Dataset for PDE10A, Compound 941] : 10
4) Cc1ncc(C(C)C)c2nc(CCc3nc(N4CCCC4)nn3C)nn12 [Roche-Dataset for PDE10A, Compound 672] : 0.00701

* * *

# target: cAMP and cAMP-inhibited cGMP 3',5'-cyclic phosphodiesterase 10A (Homo sapiens, UniProt Q9Y233)
pIC50: −log10 of the molar value.
Quick rule: pIC50 of at least 7 means class 1, below that means class 0.

1) O=C(NC[C@@H]1[C@@H](c2ccccc2)C1(F)F)c1nc(C2CC2)cnc1Nc1cncnc1 [Roche-Dataset for PDE10A, Compound 661] : class 0
2) CN(c1cncnc1)c1ccc(C2CC2)nc1C(=O)Nc1cc(-c2ccccn2)nn1C [Roche-Dataset for PDE10A, Compound 360] : class 0
3) CC(=O)Nc1nc2cc(NC(=O)c3nc(C)ccc3C)ccc2s1 [Roche-Dataset for PDE10A, Compound 926] : class 0
4) Cc1ncc(C)n2nc(CCc3nc(N4CCCOCC4)nn3C)nc12 [Roche-Dataset for PDE10A, Compound 984] : class 0
5) CCN(C)C(=O)c1cnn(C)c1C(=O)Nc1ccn2nc(N3CCOCC3)nc2c1 [Roche-Dataset for PDE10A, Compound 315] : class 1
6) CC(C)c1nnc2c(C(=O)NCCc3nc(-c4ccccc4)cn3C)cccn12 [Roche-Dataset for PDE10A, Compound 201] : class 1

* * *

# IC50 per entry for cAMP and cAMP-inhibited cGMP 3',5'-cyclic phosphodiesterase 10A (Homo sapiens)
measuredParameter: IC50 (nM)

1) Cc1noc(C(=O)Nc2cc(-c3ccccn3)nn2C)c1Br [Roche-Dataset for PDE10A, Compound 886] : 6220
2) O=C(Nc1ccn2nc(-c3ccccc3)nc2c1)c1ccno1 [Roche-Dataset for PDE10A, Compound 606] : 2350
3) Cn1cc(-c2ccccc2)nc1CCc1nc2ccccc2nc1N1CCCC1 [Roche-Dataset for PDE10A, Compound 98] : 3.44
4) Cc1nc2cc(Cl)ccc2nc1OCc1nc(N2CCCC2)nn1C [Roche-Dataset for PDE10A, Compound 982] : 28
5) CNC(=O)c1cc2[nH]c(-c3ccccc3)nc2cc1NC(=O)c1oc(CO)nc1C [Roche-Dataset for PDE10A, Compound 238] : 748
6) Cc1cc(Cl)c(C)n2nc(CCc3nc(N4CCCC4)n(C)n3)nc12 [Roche-Dataset for PDE10A, Compound 374] : 0.47
7) Cn1cc(-c2ccccc2)nc1CCc1nc2c(cnn2C)c(=O)[nH]1 [Roche-Dataset for PDE10A, Compound 854] : 50
8) O=C(Nc1cccc(OCC(F)(F)F)c1)c1nc(C2CC2)cnc1Nc1cncnc1 [Roche-Dataset for PDE10A, Compound 694] : 16
9) NS(=O)(=O)c1ccc(CCNC(=O)c2nc(C3CC3)cnc2Nc2cncnc2)cc1 [Roche-Dataset for PDE10A, Compound 569] : 300
10) O=C(Nc1nnc(-c2ccccn2)o1)c1nc(C2CC2)ccc1Nc1cncnc1 : 2580
11) Cn1ncc(C(=O)N2CCOCC2)c1C(=O)Nc1ccn2nc(-n3ccnc3)nc2c1 [Roche-Dataset for PDE10A, Compound 496] : 104
12) C/C(=C\c1nc2c(C)ncc(C)n2n1)c1nc(N2CCCC2)nn1C [Roche-Dataset for PDE10A, Compound 805] : 62
13) COCCn1nccc1NC(=O)c1nc(C2CC2)ccc1Nc1cncnc1 [Roche-Dataset for PDE10A, Compound 868] : 43
14) CNC(=O)c1c(NC(=O)c2nc(OC)cnc2Nc2cncnc2)cnn1C : 141
15) Cn1cc(-c2ccccc2)nc1/C=C/c1cc(Cl)nc(Cl)n1 [Roche-Dataset for PDE10A, Compound 543] : 2310
16) O=C1CCc2c(NC(=O)c3nc(C4CC4)cnc3Nc3cncnc3)cccc21 [Roche-Dataset for PDE10A, Compound 932] : 124
17) Cc1c(Cl)cc(Cl)c2nc(CCc3nc4ncccn4n3)nn12 [Roche-Dataset for PDE10A, Compound 791] : 916
18) Cc1nc2ccccc2nc1CCc1ncc(-c2ccccc2)[nH]1 [Roche-Dataset for PDE10A, Compound 254] : 9.25
19) O=C(NCC1(c2ccccc2)CCOCC1)c1nc(C2CC2)cnc1Nc1cncnc1 [Roche-Dataset for PDE10A, Compound 924] : 1160
20) COCCn1ccc(NC(=O)c2nc(Cl)ccc2Nc2cncnc2)n1 [Roche-Dataset for PDE10A, Compound 864] : 117
21) Cc1ccc2nc(Cl)c(OCc3nc(-c4ccccc4)cn3C)nc2c1 [Roche-Dataset for PDE10A, Compound 540] : 5.06
22) Cc1ccc(C(=O)Nc2ccn3nc(-c4ccccc4)nc3c2)cn1 [Roche-Dataset for PDE10A, Compound 684] : 4670
23) O=C(Nc1cnc(-c2ccccn2)s1)c1nc(C2CC2)ccc1Nc1cncnc1 : 2.26
24) Cc1c(C(F)F)nc2ccc(C#Cc3nc(N4CCCC4)nn3C)nn12 : 4.74
25) CNC(=O)c1cn2cc(-c3ccccc3)nc2cc1NC(=O)c1nc(C2CC2)ccc1Nc1cncnc1 [Roche-Dataset for PDE10A, Compound 184] : 0.22
26) Cn1ncc(C(=O)N2CCC2)c1C(=O)Nc1cc(C2CCC2)n(C2CCCC2)n1 [Roche-Dataset for PDE10A, Compound 1088] : 853
27) O=C(Nc1cc(Cl)ncc1Br)c1ccc2cc(-c3ccccc3)nn2c1 [Roche-Dataset for PDE10A, Compound 399] : 354
28) Cc1nc(-c2ccccc2Cl)n2c3ccc(Cl)cc3c(=O)n(C)c12 [Roche-Dataset for PDE10A, Compound 967] : 15
29) O=C(Nc1ccc(N2CCCC2=O)cc1)c1nc(C2CC2)ccc1Nc1cncnc1 [Roche-Dataset for PDE10A, Compound 733] : 18
